Molecular target: UniProt P17952
Sequence (P17952 whole entry): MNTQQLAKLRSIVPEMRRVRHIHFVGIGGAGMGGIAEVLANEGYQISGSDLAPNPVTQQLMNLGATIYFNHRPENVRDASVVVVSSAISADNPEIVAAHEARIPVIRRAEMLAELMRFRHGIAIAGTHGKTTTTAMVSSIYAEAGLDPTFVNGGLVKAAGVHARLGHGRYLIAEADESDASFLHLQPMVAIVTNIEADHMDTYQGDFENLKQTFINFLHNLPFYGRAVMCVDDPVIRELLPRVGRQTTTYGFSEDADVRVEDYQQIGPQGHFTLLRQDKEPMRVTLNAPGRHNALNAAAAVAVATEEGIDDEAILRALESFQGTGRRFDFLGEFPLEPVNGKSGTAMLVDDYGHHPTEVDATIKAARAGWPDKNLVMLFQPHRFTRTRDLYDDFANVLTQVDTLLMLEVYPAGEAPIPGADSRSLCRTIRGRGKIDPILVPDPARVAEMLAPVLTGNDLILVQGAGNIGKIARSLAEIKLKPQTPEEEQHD
Test: Malachite green inhibition assay, MurC
Type: biochemical
Settings: 0.25 h, Table S1, PKIS screening; read-out: RA [%] at 100 µM MurC
Method: Inhibition of the Mur ligases was determined using the malachite green assay, with slight modifications. In all cases, the final concentration of DMSO was 5% (v/v). After incubation for 15 min at 37 °C, the enzyme reaction was terminated by addition of 100 µM Biomol green reagent, and the absorbance was measured at 650 nm after 5 min. […] Residual activities were calculated with respect to control assays without the tested compounds, but with the 5% DMSO carrier. […]
So basically every entry gets a class from its remaining activity at 100 µM, ranges being one: < 70%; two: ≥ 70% and < 90%; three: ≥ 90%

Answered cases to consult:
{"compound": "Cc1cccc2c1NC(=O)C2=NNc1ccc(S(N)(=O)=O)cc1 [GW282536X]", "system": "UniProt P17952", "class label": "three"}
{"compound": "CC1=C(C(=O)Nc2ccc3[nH]ncc3c2)C(c2ccc3ccccc3c2)CC(=O)N1 (stereo not drawn) [GSK270822A]", "system": "UniProt P17952", "class label": "one"}
{"compound": "COc1cc2ncn(-c3cc(OCc4ccccc4Cl)c(C(N)=O)s3)c2cc1OC [GW852849X]", "system": "UniProt P17952", "class label": "one"}

Field: class (remaining activity at 100 µM) — entry: [O-][S+]1CCN(Cc2ccc(-c3ccc4ncnc(Nc5ccc(OCc6ccccc6)c(Cl)c5)c4c3)o2)CC1 [GW583373A]
one
